tested on: Escherichia coli TOP10; assay: shrunken log2 fold change of peptide-encoding DNA abundance (4.5 h post-induction vs induction); higher = less antimicrobial activity (less host growth inhibition); details: time post-induction: 4.5 h; library: site-saturation at positions 5, 18, 19, 20;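 note: peptides expressed intracellularly from a pBAD plasmid library in pooled LB shake-flask culture, induced with 0.3% L-arabinose, DNA abundance read by NGS, three biological replicates, DESeq2 with apeglm shrinkage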
Field: shrunken log2 fold change. Provide a value for each of the sequences that follow.
Enter a number only.

Entry `RRIRERPPRLPRPRPRPTYHPRP` — recorded shrunken log2 fold change = -0.407

Entry `RRIRKRPPRLPRPRPRPFGWPRP` — recorded shrunken log2 fold change = 0.682

Entry `RRIRKRPPRLPRPRPRPRKIPRP` — recorded shrunken log2 fold change = 0.968

Entry `RRIRERPPRLPRPRPRPKWIPRP` — recorded shrunken log2 fold change = -0.54

Entry `RRIRRRPPRLPRPRPRPCKSPRP` — recorded shrunken log2 fold change = 0.263

Entry `RRIRSRPPRLPRPRPRPCLVPRP` — recorded shrunken log2 fold change = -0.379

Entry `RRIRPRPPRLPRPRPRPPSEPRP` — recorded shrunken log2 fold change = 0.447

Entry `RRIRVRPPRLPRPRPRPIELPRP` — recorded shrunken log2 fold change = -0.167

Entry `RRIRARPPRLPRPRPRPQPIPRP` — recorded shrunken log2 fold change = 0.16

Entry `RRIRDRPPRLPRPRPRPFAGPRP` — recorded shrunken log2 fold change = 0.0426

Entry `RRIRDRPPRLPRPRPRPTVKPRP` — recorded shrunken log2 fold change = -0.043

Entry `RRIRDRPPRLPRPRPRPQGNPRP` — recorded shrunken log2 fold change = -0.0306

Entry `RRIRYRPPRLPRPRPRPFELPRP` — recorded shrunken log2 fold change = -0.529

Entry `RRIRHRPPRLPRPRPRPANYPRP` — recorded shrunken log2 fold change = -0.00316

Entry `RRIRARPPRLPRPRPRPHLEPRP` — recorded shrunken log2 fold change = -0.124

Entry `RRIRKRPPRLPRPRPRPKVDPRP` — recorded shrunken log2 fold change = 0.00437

Entry `RRIRARPPRLPRPRPRPQEHPRP` — recorded shrunken log2 fold change = 0.515

Entry `RRIRDRPPRLPRPRPRPSKNPRP` — recorded shrunken log2 fold change = -0.106

Entry `RRIRSRPPRLPRPRPRPLSQPRP` — recorded shrunken log2 fold change = -0.00748

Entry `RRIRHRPPRLPRPRPRPITDPRP` — recorded shrunken log2 fold change = -0.229

Entry `RRIRPRPPRLPRPRPRPLSQPRP` — recorded shrunken log2 fold change = -0.185

Entry `RRIRRRPPRLPRPRPRPYRKPRP` — recorded shrunken log2 fold change = 0.0779

Entry `RRIRIRPPRLPRPRPRPRPVPRP` — recorded shrunken log2 fold change = 0.371

Entry `RRIRPRPPRLPRPRPRPLLRPRP` — recorded shrunken log2 fold change = 1.73

Entry `RRIRLRPPRLPRPRPRPEHEPRP` — recorded shrunken log2 fold change = 0.13

Entry `RRIRFRPPRLPRPRPRPPMYPRP` — recorded shrunken log2 fold change = -0.395

Entry `RRIRERPPRLPRPRPRPLCRPRP` — recorded shrunken log2 fold change = -0.0964

Entry `RRIRRRPPRLPRPRPRPWCYPRP` — recorded shrunken log2 fold change = -0.439

Entry `RRIRERPPRLPRPRPRPCTFPRP` — recorded shrunken log2 fold change = -0.129

Entry `RRIRSRPPRLPRPRPRPQLCPRP` — recorded shrunken log2 fold change = 0.0696

Entry `RRIRQRPPRLPRPRPRPHTDPRP` — recorded shrunken log2 fold change = -0.228

Entry `RRIRPRPPRLPRPRPRPTQKPRP` — recorded shrunken log2 fold change = 0.0334
